B1: library; numbered along this chain (parent)
chain: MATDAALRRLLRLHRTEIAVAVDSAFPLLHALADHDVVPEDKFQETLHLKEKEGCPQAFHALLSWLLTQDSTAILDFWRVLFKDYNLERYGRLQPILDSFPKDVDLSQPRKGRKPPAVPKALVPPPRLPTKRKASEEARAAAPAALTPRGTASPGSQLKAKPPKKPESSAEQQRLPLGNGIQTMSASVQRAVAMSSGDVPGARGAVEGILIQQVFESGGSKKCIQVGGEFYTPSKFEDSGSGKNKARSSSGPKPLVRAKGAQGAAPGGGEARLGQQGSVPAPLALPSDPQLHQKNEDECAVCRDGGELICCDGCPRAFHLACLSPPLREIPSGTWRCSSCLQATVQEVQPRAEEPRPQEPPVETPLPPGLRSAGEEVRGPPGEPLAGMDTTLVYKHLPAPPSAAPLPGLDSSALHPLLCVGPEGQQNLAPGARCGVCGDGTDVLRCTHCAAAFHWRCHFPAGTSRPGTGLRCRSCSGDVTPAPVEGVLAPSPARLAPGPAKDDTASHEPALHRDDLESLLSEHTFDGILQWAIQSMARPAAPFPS

Variants of: B1
Experiment: AIRE transcriptional activation functional score (insulin promoter-GFP; nonsense median 0, synonymous median 1) (normalised score); higher = higher AIRE activity (more reporter activation)
Conditions: with insulin promoter-GFP reporter in HEK293
Recorded AIRE transcriptional activation functional score determines the group label, using lower band: < 0.7; central band: ≥ 0.7 and < 1; upper band: ≥ 1

As a guide, the following entries are already answered.
Enquiry: Could you tell me which band L67R belongs to?
Return: lower band

Enquiry: Could you tell me which band H292I belongs to?
Return: lower band

Enquiry: Could you tell me which band R336C belongs to?
Return: upper band

Okay, now this variant:
Enquiry: Could you tell me which band A482I belongs to?
Return: upper band
